system: L1210 leukemia ip in BDF1 mice, survival T/C; assay: NCI In Vivo Anticancer Drug Screen. Data for tumor model L1210 Leukemia (intraperitoneal) in B6D2F1 (BDF1) mice; settings: endpoint: mean survival time; dose: 400.0 mg/kg/injection; schedule: Q04DX003 (ip); vehicle: saline; higher = longer survival
Toxic doses and inconclusive results are not listed.
For each of the compounds below, state its T/C.

As a guide, the following entries are already answered.
compound: COc1ccccc1C(=O)N/N=C\c1ccc(Cl)cc1Cl
measure: T/C
recorded-value: 100 % of control
--
compound: Cn1c[n+](C)cc1C(=O)[O-]
measure: T/C
recorded-value: 109 % of control
--
compound: COc1ccccc1P(c1ccccc1OC)c1ccccc1OC
measure: T/C
recorded-value: 101 % of control
--
compound: COc1ccc(CNCCNCCNCc2ccc(OC)cc2)cc1
measure: T/C
recorded-value: 104 % of control
--
compound: CCOC(=O)c1ccc(NCC(C)(C)[N+](=O)[O-])cc1
measure: T/C
recorded-value: 91 % of control
--
compound: O=C(O)C1CC=CCC1C(=O)O (centres undefined)
measure: T/C
recorded-value: 99 % of control
--
compound: CC(C)CC(C)(O)C(N)=O (centres undefined)
measure: T/C
recorded-value: 91 % of control
--
compound: Cc1noc(/N=C/c2ccccc2)c1C
measure: T/C
recorded-value: 96 % of control
--
compound: COc1cccc([Si](C)(C)[Si](C)C)c1
measure: T/C
recorded-value: 96 % of control
--
compound: O=C(O)C1(O)CCCCC1
measure: T/C
recorded-value: 101 % of control

Quick batch: T/C for everything below.
1. CCCc1cn(C(=O)NC2CCCCC2)c2ccccc12
2. c1ccc2c3c(ccc2c1)OCN(C12CC4CC(CC(C4)C1)C2)C3
3. COC(CN(C)CC(OC)OC)OC
4. CCC1(CC)NC(=O)N(CCO)C1=O

// result
["93 % of control", "89 % of control", "105 % of control", "105 % of control"]

###

system: L1210 leukemia ip in BDF1 mice, survival T/C; assay: NCI In Vivo Anticancer Drug Screen. Data for tumor model L1210 Leukemia (intraperitoneal) in B6D2F1 (BDF1) mice; details: endpoint: mean survival time; dose: 400.0 mg/kg/injection; schedule: Q04DX002 (ip); vehicle: other; higher = longer survival
Inconclusive results and toxic doses are left out.
measure: T/C

Some solved entries appear below for comparison.
compound: CSCCNC(=O)C(=O)NCCSC
recorded-value: 98 % of control

compound: O=C1CCCCCN1
recorded-value: 101 % of control

compound: O=C1CCCCC1c1ccccc1 (centres undefined)
recorded-value: 99 % of control

Okay, now this compound:
// query State the recorded T/C for this entry: `CC(C)NC(=O)CCSCCC(=O)NC(C)C`
// result 94 % of control

###

tested on: L1210 leukemia ip in BDF1 mice, survival T/C; assay: NCI In Vivo Anticancer Drug Screen. Data for tumor model L1210 Leukemia (intraperitoneal) in B6D2F1 (BDF1) mice; details: endpoint: mean survival time; dose: 200.0 mg/kg/injection; schedule: Q04DX003 (ip); vehicle: saline with Tween-80; higher = longer survival
Inconclusive results and toxic doses are left out.
Hi there, I'd appreciate the recorded T/C for every entry that follows.

compound: CC12CC1(C)C(=O)OC2=O (stereo unspecified)
T/C: 92 % of control

compound: CCOC(=O)c1cnc(SC)nc1Nc1ccc(C)cc1
T/C: 91 % of control

compound: c1ccc(NCc2ccco2)cc1
T/C: 98 % of control

compound: Cc1ccc(S(=O)(=O)N=Nc2c(O)[nH]c3cc(O)c(C(=O)O)cc23)cc1
T/C: 110 % of control

compound: Cc1ccc(S(=O)(=O)N/N=C(\CSc2ccc([N+](=O)[O-])cc2)c2ccccc2)cc1
T/C: 92 % of control

// query Could you share what T/C was measured for `CC(C)(C)CC(C)(C)c1ccc(OCCOc2ccccc2N)cc1` , tested on L1210 leukemia ip in BDF1 mice, survival T/C?
// result 95 % of control
